Data origin: patent US20100280050A1

studyTarget: dopamine D2 receptor (Homo sapiens, UniProt P14416)
Sequence (P14416 whole entry, species assumed): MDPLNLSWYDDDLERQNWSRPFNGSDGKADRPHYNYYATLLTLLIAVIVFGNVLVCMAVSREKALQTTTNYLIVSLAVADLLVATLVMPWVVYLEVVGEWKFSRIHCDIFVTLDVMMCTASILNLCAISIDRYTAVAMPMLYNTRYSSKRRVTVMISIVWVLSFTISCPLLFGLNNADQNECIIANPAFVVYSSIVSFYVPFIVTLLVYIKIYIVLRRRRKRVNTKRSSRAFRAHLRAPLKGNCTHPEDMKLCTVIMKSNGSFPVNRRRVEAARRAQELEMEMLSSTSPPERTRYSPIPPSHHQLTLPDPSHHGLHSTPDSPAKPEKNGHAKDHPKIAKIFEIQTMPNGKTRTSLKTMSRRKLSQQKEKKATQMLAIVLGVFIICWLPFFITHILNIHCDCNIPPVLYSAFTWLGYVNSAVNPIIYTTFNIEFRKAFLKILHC
assayOverview: dopamine D2 receptor antagonism
conditionSummary: weak antagonist
measuredParameter: IC50
Kindly format the answer as number then unit.

Enquiry: Fill blank: measured IC50 of the molecule N#Cc1cc(CN2CCC(Nc3ncnc4sc(Cl)cc34)CC2)ccc1F is ____.
Return: 670 nM

---

studyTarget: dopamine D1 receptor (Homo sapiens, UniProt P21728)
Sequence (P21728 whole entry): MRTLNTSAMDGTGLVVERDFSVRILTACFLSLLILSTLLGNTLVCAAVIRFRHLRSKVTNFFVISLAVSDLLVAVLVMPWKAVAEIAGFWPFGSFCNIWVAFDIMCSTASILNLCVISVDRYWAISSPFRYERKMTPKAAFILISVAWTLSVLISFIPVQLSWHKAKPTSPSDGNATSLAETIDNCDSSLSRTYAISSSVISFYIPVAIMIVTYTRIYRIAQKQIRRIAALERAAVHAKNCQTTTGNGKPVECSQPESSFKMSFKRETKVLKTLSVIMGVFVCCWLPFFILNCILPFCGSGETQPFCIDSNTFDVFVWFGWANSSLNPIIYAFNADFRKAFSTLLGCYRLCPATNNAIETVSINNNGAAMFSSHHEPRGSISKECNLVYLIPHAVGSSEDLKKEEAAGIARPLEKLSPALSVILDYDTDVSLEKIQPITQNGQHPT
assayOverview: dopamine D1 receptor activity
conditionSummary: no activity
pKi: −log10 of the molar value.
measuredParameter: pKi

Enquiry: API: value(readout=pKi, system=dopamine D1 receptor (Homo sapiens, UniProt P21728)) for record N#Cc1cc(CN2CCC(Nc3ncnc4sc(Cl)cc34)CC2)ccc1F
Return: < 5.30

---

studyTarget: dopamine D5 receptor (Homo sapiens)
Sequence (P21918 whole entry): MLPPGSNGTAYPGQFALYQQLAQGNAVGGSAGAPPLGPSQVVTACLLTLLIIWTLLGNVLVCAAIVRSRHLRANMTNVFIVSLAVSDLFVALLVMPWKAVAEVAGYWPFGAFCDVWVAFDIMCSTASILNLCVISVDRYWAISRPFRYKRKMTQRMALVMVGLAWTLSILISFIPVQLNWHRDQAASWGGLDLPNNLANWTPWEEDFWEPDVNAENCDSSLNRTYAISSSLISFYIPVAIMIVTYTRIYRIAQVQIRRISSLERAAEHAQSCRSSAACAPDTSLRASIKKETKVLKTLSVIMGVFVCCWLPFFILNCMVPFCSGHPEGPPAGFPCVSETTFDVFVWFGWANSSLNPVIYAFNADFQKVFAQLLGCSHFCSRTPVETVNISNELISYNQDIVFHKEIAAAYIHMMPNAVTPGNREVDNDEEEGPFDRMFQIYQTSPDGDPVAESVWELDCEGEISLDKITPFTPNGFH
pKi: −log10 of the molar value.
measuredParameter: pKi

Enquiry: API: value(readout=pKi, system=dopamine D5 receptor (Homo sapiens)) for record N#Cc1cc(CN2CCC(Nc3ncnc4sc(Cl)cc34)CC2)ccc1F
Return: < 5.30
